- Target Desc: DAT (Homo sapiens)
- Sequence (Q01959 whole entry): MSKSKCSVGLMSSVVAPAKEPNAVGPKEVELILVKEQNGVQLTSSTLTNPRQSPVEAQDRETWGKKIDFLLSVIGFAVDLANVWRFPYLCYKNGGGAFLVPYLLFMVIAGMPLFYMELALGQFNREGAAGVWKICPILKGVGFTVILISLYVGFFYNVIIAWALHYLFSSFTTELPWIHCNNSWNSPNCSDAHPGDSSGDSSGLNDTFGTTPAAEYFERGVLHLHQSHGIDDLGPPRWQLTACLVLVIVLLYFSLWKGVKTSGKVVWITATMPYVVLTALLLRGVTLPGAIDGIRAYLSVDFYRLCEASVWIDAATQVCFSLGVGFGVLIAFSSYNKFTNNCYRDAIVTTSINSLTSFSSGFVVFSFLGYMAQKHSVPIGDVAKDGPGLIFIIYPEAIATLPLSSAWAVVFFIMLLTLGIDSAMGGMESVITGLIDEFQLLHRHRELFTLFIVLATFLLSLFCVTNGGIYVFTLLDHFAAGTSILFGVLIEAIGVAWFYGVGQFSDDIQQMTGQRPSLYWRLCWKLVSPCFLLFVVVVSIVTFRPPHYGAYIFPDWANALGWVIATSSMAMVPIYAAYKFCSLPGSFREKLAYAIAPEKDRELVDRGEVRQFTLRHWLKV
- Assay Method Text: cell-based
- Experimental Setup: DAT, transporter, BL (blocker); read-out: IC50
Quantity Kind: IC50

Consider the reported IC50 for these compounds:
>>> value("CC(C)OC(=O)OCOc1cccc2c1c(CCN(C)C)cn2COC(=O)OC(C)C")
"> 100 µM"
>>> value("CCCCC(=O)OCOc1cccc2[nH]cc(CCN(C)C)c12")
"> 100 µM"
>>> value("CC(C)[Si](Oc1cccc2[nH]cc(CN(C)C)c12)(C(C)C)C(C)C")
"> 100 µM"

List reported IC50 for each of these compounds:
1. CN(C)Cc1c[nH]c2cccc(O[Si](C)(C)C(C)(C)C)c12
2. CN(C)CCc1c[nH]c2cccc(OC(=O)OCC3CC3)c12
3. CCCC(=O)OCOc1cccc2[nH]cc(CCN(C)C)c12

(A)
1: 25.4 µM; 2: > 100 µM; 3: > 100 µM
